- tgt: recombinant human MAO-A (monoamine oxidase-A) (Homo sapiens, UniProt P21397)
- Construct: purchased Sigma-Aldrich
- Sequence (P21397 1-527): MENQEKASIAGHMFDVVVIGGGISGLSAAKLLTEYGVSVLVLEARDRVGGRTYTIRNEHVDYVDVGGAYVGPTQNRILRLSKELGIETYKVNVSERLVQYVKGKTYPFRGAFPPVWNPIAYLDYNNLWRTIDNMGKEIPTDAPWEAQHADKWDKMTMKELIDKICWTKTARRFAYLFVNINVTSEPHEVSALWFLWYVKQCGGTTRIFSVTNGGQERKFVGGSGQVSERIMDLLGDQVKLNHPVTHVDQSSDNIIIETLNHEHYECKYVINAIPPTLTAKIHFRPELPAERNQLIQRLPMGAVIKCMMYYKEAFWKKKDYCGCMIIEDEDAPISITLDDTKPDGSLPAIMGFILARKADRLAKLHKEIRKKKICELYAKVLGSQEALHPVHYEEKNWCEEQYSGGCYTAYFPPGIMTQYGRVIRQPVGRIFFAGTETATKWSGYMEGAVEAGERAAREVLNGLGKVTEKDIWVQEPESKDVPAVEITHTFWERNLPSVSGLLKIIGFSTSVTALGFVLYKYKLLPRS
- experiment: Amplex Red HRP-coupled amine oxidase activity evaluation, recombinant human MAO-A
- Format: biochemical
- particulars: substrate 0.5 mM tyramine; read-out: Inhibitory Activity (IC50, nM) MAO-A
Counter-ions that a name gives are not always drawn.
Below: a set of entries, each annotated with reported IC50.

molecule: NCC(Cn1nnn(Cc2cccc(-c3ccc4c(c3)OCO4)c2)c1=O)=C(F)F [Example 30, trifluoroacetate]
IC50: 70900 nM
//
molecule: Cc1cc(-c2cccc(-n3nnn(CC(CN)=C(F)F)c3=O)c2)cc2c1NC(=O)CC2 [Example 13, trifluoroacetate]
IC50: > 100000 nM
//
molecule: NCC(Cn1nnn(-c2ccc(-c3ccc4c(c3)OCO4)cc2)c1=O)=C(F)F [Example 19, trifluoroacetate]
IC50: > 100000 nM
//
molecule: CCn1cc(-c2ccc(-n3nnn(CC(CN)=C(F)F)c3=O)cc2)ccc1=O [Example 18, trifluoroacetate]
IC50: > 100000 nM
//
molecule: CN1C(=O)CCc2cc(-c3cccc(-n4nnn(CC(CN)=C(F)F)c4=O)c3)ccc21 [Example 14, trifluoroacetate]
IC50: > 100000 nM

Recall the recorded IC50 for CCn1cc(-c2ccc(Cn3ccn(CC(CN)=C(F)F)c3=O)s2)ccc1=O [Example 50, trifluoroacetate] with recombinant human MAO-A (monoamine oxidase-A) (Homo sapiens, UniProt P21397) and state it. > 100000 nM

How about NCC(Cn1nnn(-c2cc(-c3ccc4c(c3)OCO4)cs2)c1=O)=C(F)F [Example 39, trifluoroacetate] ? 26200 nM

How about CCn1cc(-c2ccc(C)c(-n3nnn(CC(CN)=C(F)F)c3=O)n2)ccc1=O [Example 24, trifluoroacetate] ? > 100000 nM

How about Cc1cc(-c2cncc(-n3nnn(CC(CN)=C(F)F)c3=O)c2)cc2c1NC(=O)CC2 [Example 49, trifluoroacetate] ? 52200 nM

How about CS(=O)(=O)c1ccc(-c2cccc(Cn3nnn(CC(CN)=C(F)F)c3=O)c2)cc1 [Example 27, trifluoroacetate] ? > 100000 nM

How about CCn1cc(-c2ccc(Cn3c(C)nn(CC(CN)=C(F)F)c3=O)s2)cn1 [Example 1, trifluoroacetate] ? > 100000 nM

How about Cc1cc(-c2cccc(Cn3nnn(CC(CN)=C(F)F)c3=O)c2)cc2c1NC(=O)CC2 [Example 31, trifluoroacetate] ? 82100 nM

How about CCn1cc(-c2ccc(-n3nnn(CC(CN)=C(F)F)c3=O)cc2)cn1 [Example 22, trifluoroacetate] ? 98400 nM
